These measurements were taken from patent US5514694A.

target: Calpain I from human erythrocytes (Homo sapiens); construct: Calpain I was purified from human erythrocytes; from tissue; host or cells: human erythrocytes; test: Calpain I inhibition, Suc-Leu-Tyr-AMC hydrolysis (KI); type: biochemical; settings: Table 1, Z-Leu--AA--CONHR; read-out: KI Cal I
Sequence (P07384 whole entry): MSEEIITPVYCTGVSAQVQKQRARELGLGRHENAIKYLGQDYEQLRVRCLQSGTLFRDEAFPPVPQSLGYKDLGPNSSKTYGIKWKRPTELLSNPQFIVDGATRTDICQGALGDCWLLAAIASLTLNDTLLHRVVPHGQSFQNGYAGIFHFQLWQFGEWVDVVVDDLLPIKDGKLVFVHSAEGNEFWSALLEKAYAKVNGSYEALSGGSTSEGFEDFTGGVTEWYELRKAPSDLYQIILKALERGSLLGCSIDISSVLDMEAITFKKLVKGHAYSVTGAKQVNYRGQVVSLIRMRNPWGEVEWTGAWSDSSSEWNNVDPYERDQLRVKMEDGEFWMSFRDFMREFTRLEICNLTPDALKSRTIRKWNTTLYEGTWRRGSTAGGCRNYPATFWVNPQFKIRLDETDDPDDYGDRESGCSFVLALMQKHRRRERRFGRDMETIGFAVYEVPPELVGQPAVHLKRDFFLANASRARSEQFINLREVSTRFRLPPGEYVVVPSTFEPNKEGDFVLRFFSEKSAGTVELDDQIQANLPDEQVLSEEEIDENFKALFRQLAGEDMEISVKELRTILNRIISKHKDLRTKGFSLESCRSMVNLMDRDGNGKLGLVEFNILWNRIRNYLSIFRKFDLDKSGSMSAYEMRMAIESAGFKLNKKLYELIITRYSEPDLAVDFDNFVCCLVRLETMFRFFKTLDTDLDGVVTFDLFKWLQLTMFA
Sequence (P04632 whole entry partner): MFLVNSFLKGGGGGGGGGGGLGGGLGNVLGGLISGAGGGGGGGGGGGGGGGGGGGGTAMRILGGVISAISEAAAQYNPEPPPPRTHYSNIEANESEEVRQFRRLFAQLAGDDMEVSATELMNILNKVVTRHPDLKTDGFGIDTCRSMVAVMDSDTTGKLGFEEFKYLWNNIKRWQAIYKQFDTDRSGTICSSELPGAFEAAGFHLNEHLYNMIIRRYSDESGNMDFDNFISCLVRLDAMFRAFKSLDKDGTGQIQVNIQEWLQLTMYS
resultType: pKi
For clarity, pKi is expressed as the negative log10 of concentration in mol/L.

compound | targetOrTestSystem | pKi
CCC(NC(=O)C(CC(C)C)NC(=O)OCc1ccccc1)C(=O)C(=O)NCc1ccncc1 (stereo not shown) | Calpain I from human erythrocytes (Homo sapiens) | 5.96

Req: Kindly state the measured pKi obtained for CCC(NC(=O)C(CC(C)C)NC(=O)OCc1ccccc1)C(=O)C(=O)NCc1ccco1 (stereo not shown) with Calpain I from human erythrocytes (Homo sapiens).
Resp: 6.10

Req: Kindly state the measured pKi obtained for CCC(NC(=O)C(CC(C)C)NC(=O)OCc1ccccc1)C(=O)C(=O)NCCCN1CCCC1=O (stereo not shown) with Calpain I from human erythrocytes (Homo sapiens).
Resp: 5.92

Req: Kindly state the measured pKi obtained for CCC(NC(=O)[C@H](CC(C)C)NC(=O)OCc1ccccc1)C(=O)C(=O)NCCN1CCOCC1 (stereo partly shown) with Calpain I from human erythrocytes (Homo sapiens).
Resp: 6.00
